meta.source: patent US8063221B2

Target: recombinant full-length human GSK3β (Homo sapiens)
Construct: recombinant full-length human GSK3β (Upstate); purchased Upstate
Sequence (P49841 whole entry): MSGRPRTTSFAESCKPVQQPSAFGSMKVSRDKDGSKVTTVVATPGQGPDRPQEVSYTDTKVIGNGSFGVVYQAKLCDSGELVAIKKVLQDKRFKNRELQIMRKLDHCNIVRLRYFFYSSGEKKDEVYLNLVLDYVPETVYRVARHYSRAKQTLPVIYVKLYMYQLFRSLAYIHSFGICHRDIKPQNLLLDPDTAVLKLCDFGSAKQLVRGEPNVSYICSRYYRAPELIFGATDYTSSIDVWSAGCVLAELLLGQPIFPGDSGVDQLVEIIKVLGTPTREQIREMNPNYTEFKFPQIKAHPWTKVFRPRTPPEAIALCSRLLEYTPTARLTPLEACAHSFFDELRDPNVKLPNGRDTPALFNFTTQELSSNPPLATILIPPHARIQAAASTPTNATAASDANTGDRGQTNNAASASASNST
Test: Luciferase-coupled cell-free GSK3β kinase assay
Type: biochemical
Conditions: Table 2
pIC50: −log10 of the molar value.
assay-metric: pIC50

Use the examples below as a reference point.
Cc1c(C(=O)O)c(=O)c2c(N)c(F)c(NCCNc3ccccn3)c(OC(C)C)c2n1C1CC1 [Example 127]; 6.30 to 7.00
COc1c(NCCCc2ccccc2)c(F)c(N)c2c(=O)ccn(C3CC3)c12 [compound 1]; 6.30 to 7.00
CC1(C)COc2c(NCCCn3ccnc3)c(F)c(N)c3c(=O)ccn1c23 [compound 79]; > 7.00
CC1(C)Cn2cc(C(=O)O)c(=O)c3c(N)c(F)c(NCCNc4ccccn4)c(c32)O1 [compound 57]; 6.30 to 7.00
COc1c(NCCNc2ccc(C(=O)O)cn2)c(F)c(N)c2c(=O)c(C(=O)O)cn(C3CC3)c12 [Example 138]; > 7.00

Could you report pIC50 for every entry in the following list?
1. CC(C)[C@@H]1COc2c(NCCCn3ccnc3)c(F)c(N)c3c(=O)c(C(=O)O)cn1c23 [compound 63]
2. C[C@H]1COc2c(NCCNc3ccccn3)c(F)c(N)c3c(=O)c(C#N)cn1c23 [Example 110]
3. Cc1ccc(C(C)C)c(OCCNc2c(F)c(N)c3c(=O)c(C(=O)O)cn4c3c2OC[C@@H]4C)c1 [compound 85]
4. COc1ccc(OCC(C)Nc2c(F)c(N)c3c(=O)c(C(=O)O)cn4c3c2OC[C@@H]4C)cc1 (stereo partly shown) [compound 86]
5. CC1(C)COc2c(NCCCn3cnc4ccccc43)c(F)c(N)c3c(=O)c(C(=O)O)cn(c23)C1 [compound 52]
6. C[C@H]1COc2c(NCCCN3CCCC3=O)c(F)c(N)c3c(=O)c(C(=O)O)cn1c23 [compound 23]
7. C[C@H]1COc2c(NCCCn3ccnc3)c(F)c(N)c3c(=O)c(C#N)cn1c23 [Example 114]

**A:**
1. > 7.00
2. > 7.00
3. 6.30 to 7.00
4. 6.00 to 6.30
5. 6.30 to 7.00
6. 6.30 to 7.00
7. > 7.00
